This collection of values is drawn from patent US5138069A.

biological target: AII receptor; assay: Angiotensin II receptor binding (displacement of 3H-AII); conditions: read-out: Angiotensin II Receptor Binding IC50; Table 25; tested as sodium salt; rat adrenal cortical microsomes, 2 nM 3H-AII, 1 hour, room temperature
Property name: IC50 (nM)
Give a bare numeral; the unit nM is implied.

stdin: Sample "CCCCc1nc(C#N)c(C#N)n1Cc1ccc(NC(=O)c2ccccc2NS(=O)(=O)C(F)(F)F)cc1" — what was its IC50?
stdout: 7600

stdin: Quick one: "CCCCc1nc(Cl)c(CN=[N+]=[N-])n1Cc1ccc(C(=O)c2ccccc2C(=O)O)cc1"
stdout: 1400

stdin: Same for "CCCCc1nc(Cl)c(Cn2ccnc2)n1Cc1ccc(C(=O)c2ccccc2C(=O)O)cc1"
stdout: 2500

stdin: // same read-out, input: "CCCCc1nc(CNC(=O)OCCC)c(Cl)n1Cc1ccc(-c2ccccc2C(=O)O)cc1"
stdout: 140

stdin: Can you check "CCCCc1nc(Cl)c(Cc2nnn[nH]2)n1Cc1ccc(-c2nnn[nH]2)cc1" next?
stdout: 1200

stdin: Could you do the same for "CCCCOC(=O)NCc1c(Cl)nc(CCCC)n1Cc1ccc(-c2ccccc2C(=O)O)cc1" , please?
stdout: 200

stdin: Please do the same for "CCCCc1nc(Cl)c(COC)n1Cc1ccc(-c2ccccc2Cc2nn[nH]n2)cc1" as well.
stdout: 300

stdin: Would you mind doing "CCCCc1nc(Cl)c(CNC(=O)OCC)n1Cc1ccc(-c2ccccc2C(=O)O)cc1" as well?
stdout: 200

====

Would you mind telling me the reported minimal effective dose at 100 mg/kg of each entry?
test system: Renal Hypertensive Rats; assay: Antihypertensive effects in renal hypertensive rats; type: in vivo; conditions: Rattus norvegicus; Table 25; oral, 100 mg/kg or less

stdin: What measured minimal effective dose at 100 mg/kg goes with "CCCCc1nc(Cl)c(CCCF)n1Cc1ccc(-c2ccccc2C(=O)O)cc1" ?
stdout: < 100 mg/kg

stdin: Please answer likewise for "CCCCc1nc(Cl)c(CO)n1Cc1ccc(OCc2ccccc2C(=O)O)cc1"
stdout: < 100 mg/kg

stdin: What about this compound? "CC(C)c1nccn1Cc1ccc(NC(=O)c2ccccc2NS(=O)(=O)C(F)(F)F)cc1"
stdout: > 100 mg/kg

====

test system: Renal Hypertensive Rats; experiment: Antihypertensive effects in renal hypertensive rats; assay type: in vivo; conditions: Rattus norvegicus; Table 25; oral, 100 mg/kg or less
Consider the following compounds; for each one, report its minimal effective dose at 100 mg/kg.

stdin: Which minimal effective dose at 100 mg/kg value is on record for "CCCc1nc(Cl)c(C=O)n1Cc1ccc(-c2ccccc2-c2nnn[nH]2)cc1" ?
stdout: < 100 mg/kg

stdin: Entry "O=C(O)c1ccccc1-c1ccc(Cn2c(CO)cnc2SCC2CC2)cc1" please
stdout: > 100 mg/kg

stdin: Next up: "CCCCc1nc(Cl)c(CC(=O)O)n1Cc1ccc(-c2ccccc2C(=O)O)cc1"
stdout: < 100 mg/kg

stdin: Another compound to check: CCCCc1nc(Cl)c(CC(=O)OC)n1Cc1ccc(NC(=O)[C@@H]2CCCC[C@@H]2NS(=O)(=O)C(F)(F)F)cc1 (relative stereo) [Example 74 (cis compound)]
stdout: > 100 mg/kg

stdin: Another: "CCCCc1nc(Cl)c(CCC(=O)N2CCOCC2)n1Cc1ccc(NC(=O)c2ccccc2NS(=O)(=O)C(F)(F)F)cc1"
stdout: > 100 mg/kg

stdin: Can you handle "CCCCSc1ncc(CO)n1Cc1ccc(-c2ccccc2C(=O)O)cc1" next?
stdout: > 100 mg/kg

stdin: Same thing, different compound: "COc1ccc(Cc2nccn2Cc2ccc(NC(=O)c3ccccc3C(=O)O)cc2)cc1"
stdout: > 100 mg/kg

stdin: How about this compound: "CCCCc1nc(CO)c([N+](=O)[O-])n1Cc1ccc(-c2ccccc2C(=O)O)cc1"
stdout: < 100 mg/kg
